molecular target: dopamine transporter (DAT); assay: Binding affinity for the dopamine transporter
pIC50: −log10 of the molar value.

# Compound, pIC50
rows = [
    ("CCC(=O)C1C(c2ccc(Cl)c(Cl)c2)CC2CCC1N2CCCN1CC[S][Re]2(=[O])[S]CC[N]2C(=O)C1 (mixture of isomers)", 8.28),
    ("CCC(=O)C1C(c2ccc(F)cc2)CC2CCC1N2CCC[N+]12CC[S][Re-]13(=[O])[S]CC[N]3C(=O)C2 (stereo not shown)", 8.70),
    ("COC(=O)C1C(c2ccc(Cl)c(Cl)c2)CC2CCC1N2CCC[N+]12CC[S][Re-]13(=[O])[S]CC[N]3C(=O)C2 (mixture of isomers) [Compound O-863]", 7.40),
    ("COC(=O)C1C(c2ccc(F)cc2)CC2CCC1N2CCC[N+]12CC[S][Re-]13(=[O])[S]CC[N]3C(=O)C2 (mixture of isomers) [Compound O-861]", 8.54),
    ("CCC(=O)C1C(c2ccc(F)cc2)CC2CCC1N2CCCN1CC[S][Re]2(=[O])[S]CC[N]2C(=O)C1 (mixture of isomers)", 8.23),
    ("COC(=O)C1C(c2ccc3ccccc3c2)CC2CCC1N2CCC[N+]12CC[S][Re-]13(=[O])[S]CC[N]3C(=O)C2 (mixture of isomers)", 8.44),
    ("CON(C)C(=O)C1C(c2ccc(F)cc2)CC2CCC1N2CCC[N+]12CC[S][Re-]13(=[O])[S]CC[N]3C(=O)C2 (stereo not shown)", 7.40),
    ("COC(=O)C1C(c2ccc(F)cc2)CC2CCC1N2CCCN1CC[S][Re]2(=[O])[S]CC[N]2C(=O)C1 (single isomer, unassigned) [Compound O-928]", 8.52),
    ("COC(=O)C1C(c2ccc(Cl)c(Cl)c2)CC2CCC1N2CCC[N+]12CC[S][Re-]13(=[O])[S]CC[N]3C(=O)C2 (stereo not shown) [Compound O-1196]", 8.00),
    ("COC(=O)C1C(c2ccc(F)cc2)CC2CCC1N2CCC[N+]12CC[S][Re-]13(=[O])[S]CC[N]3C(=O)C2 (stereo not shown) [Compound O-1186]", 8.42),
    ("COC(=O)C1=C(c2ccc3ccccc3c2)CC2CCC1N2CCC[N+]12CC[S][Re-]13(=[O])[S]CC[N]3C(=O)C2 (mixture of isomers)", 7.20),
    ("COC(=O)C1C(c2ccc(F)cc2)CC2CCC1N2CCCN1CC[S][Re]2(=[O])[S]CC[N]2C(=O)C1 (single isomer, unassigned) [Compound O-927]", 8.30),
    ("COC(=O)C1=C(c2ccc(Cl)c(Cl)c2)CC2CCC1N2CCC[N+]12CC[S][Re-]13(=[O])[S]CC[N]3C(=O)C2 (stereo not shown)", 7.22),
]

---

// log10 IC50 collected for SERT (Homo sapiens)
Readout kind: log10 IC50 (log10 of the value in nM)

# Molecule, log10 IC50
records = [
    ("COC(=O)C1C(c2ccc(F)cc2)CC2CCC1N2CCC[N+]12CC[S][Re-]13(=[O])[S]CC[N]3C(=O)C2 (stereo not drawn) [Compound O-1186]", 3.11),
    ("CCC(=O)C1C(c2ccc(F)cc2)CC2CCC1N2CCC[N+]12CC[S][Re-]13(=[O])[S]CC[N]3C(=O)C2 (stereo not drawn)", 2.70),
    ("CCC(=O)C1C(c2ccc(Cl)c(Cl)c2)CC2CCC1N2CCCN1CC[S][Re]2(=[O])[S]CC[N]2C(=O)C1 (mixture of isomers)", 2.53),
    ("COC(=O)C1=C(c2ccc3ccccc3c2)CC2CCC1N2CCC[N+]12CC[S][Re-]13(=[O])[S]CC[N]3C(=O)C2 (mixture of isomers)", 2.98),
    ("COC(=O)C1C(c2ccc(F)cc2)CC2CCC1N2CCCN1CC[S][Re]2(=[O])[S]CC[N]2C(=O)C1 (single isomer, unassigned) [Compound O-927]", 2.30),
    ("COC(=O)C1=C(c2ccc(Cl)c(Cl)c2)CC2CCC1N2CCC[N+]12CC[S][Re-]13(=[O])[S]CC[N]3C(=O)C2 (stereo not drawn)", 3.23),
    ("COC(=O)C1C(c2ccc3ccccc3c2)CC2CCC1N2CCC[N+]12CC[S][Re-]13(=[O])[S]CC[N]3C(=O)C2 (mixture of isomers)", 1.77),
    ("COC(=O)C1C(c2ccc(Cl)c(Cl)c2)CC2CCC1N2CCC[N+]12CC[S][Re-]13(=[O])[S]CC[N]3C(=O)C2 (stereo not drawn)", 2.81),
    ("COC(=O)C1C(c2ccc(F)cc2)CC2CCC1N2CCC[N+]12CC[S][Re-]13(=[O])[S]CC[N]3C(=O)C2 (mixture of isomers) [Compound O-861]", 1.90),
    ("CCC(=O)C1C(c2ccc(F)cc2)CC2CCC1N2CCCN1CC[S][Re]2(=[O])[S]CC[N]2C(=O)C1 (mixture of isomers)", 2.30),
    ("CON(C)C(=O)C1C(c2ccc(F)cc2)CC2CCC1N2CCC[N+]12CC[S][Re-]13(=[O])[S]CC[N]3C(=O)C2 (stereo not drawn)", 3.51),
    ("COC(=O)C1C(c2ccc(F)cc2)CC2CCC1N2CCCN1CC[S][Re]2(=[O])[S]CC[N]2C(=O)C1 (single isomer, unassigned) [Compound O-928]", 1.48),
]
